STUDY SYSTEM: human glucagon receptor (human, UniProt P47871 26-477)
Sequence (P47871 26-477): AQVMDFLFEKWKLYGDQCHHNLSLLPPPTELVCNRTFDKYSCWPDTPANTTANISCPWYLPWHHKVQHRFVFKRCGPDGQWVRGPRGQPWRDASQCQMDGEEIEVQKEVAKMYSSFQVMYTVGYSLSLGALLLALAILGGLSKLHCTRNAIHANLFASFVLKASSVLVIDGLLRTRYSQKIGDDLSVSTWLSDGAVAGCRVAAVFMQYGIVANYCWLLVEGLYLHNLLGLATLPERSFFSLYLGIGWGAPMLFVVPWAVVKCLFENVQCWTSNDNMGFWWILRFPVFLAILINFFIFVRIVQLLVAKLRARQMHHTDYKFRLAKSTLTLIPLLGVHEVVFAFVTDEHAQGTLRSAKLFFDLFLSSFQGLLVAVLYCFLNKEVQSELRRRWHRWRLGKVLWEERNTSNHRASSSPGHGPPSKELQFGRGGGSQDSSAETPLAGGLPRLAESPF
METHOD SUMMARY: cell-based or functional assay
Where no end group is shown, it is not given here. [ ]: non-standard residue; d: D form. αMePhe(2,6-F2) = C[C@](N)(Cc1c(F)cccc1F)C(=O)O; αMePhe(2-F) = C[C@](N)(Cc1ccccc1F)C(=O)O; αMeBip(OMe) = alpha-methylated Bip(OMe); hhPhe = N[C@@H](CCCc1ccccc1)C(=O)O; αMeD = C[C@](N)(CC(=O)O)C(=O)O; αMeP = C[C@@]1(C(=O)O)CCCN1; αMeAPPA = not defined here; αMeS = C[C@](N)(CO)C(=O)O; Aib = CC(C)(N)C(=O)O
ENDPOINT NAME: cAMP production (pmol/ml/µg prt) with saturated glucagon peptide, at 100 nM

Here is how some binders turned out for cAMP production (pmol/ml/µg prt) with saturated glucagon peptide, at 100 nM.
VH[αMeP]EGT[αMePhe(2,6-F2)]TS[αMeD][αMeBip(OMe)][hhPhe] (not fully specified (C-terminus)) [Seq. ID. No. 80]    0
VH[αMeP]EGT[αMePhe(2,6-F2)]TS[αMeD][αMeBip(OMe)][αMeAPPA] (not fully specified (C-terminus); reading uncertain) [Seq. ID. No. 204]    5
VH[Aib]QGT[αMePhe(2,6-F2)]TS[αMeD][αMeBip(OMe)][αMeAPPA] (not fully specified (C-terminus); reading uncertain) [Seq. ID. No. 199]    7

[1] VH[Aib]EGTFT[αMeS]D[αMeBip(OMe)][αMeAPPA] (not fully specified (C-terminus); printed as VH-Aib-EGTFT-(αMe-Ser)-D-(αMe-Bip(OMe))-(αMe-APPA); reading uncertain) [Seq. ID. No. 163]
[2] VHSQGT[αMePhe(2-F)]TS[αMeD][αMeBip(OMe)][αMeAPPA] (not fully specified (C-terminus); printed as VHSQGT-(αMe-2FPhe)-TS-(αMe-Asp)-(αMe-Bip(OMe))-(αMe-APPA); reading uncertain) [Seq. ID. No. 189]
[3] VH[Aib]EGT[αMePhe(2-F)]T[αMeS]D[αMeBip(OMe)][hhPhe]-NH2 [Seq. ID. No. 47]
[4] VHSQGT[αMePhe(2-F)]TSD[αMeBip(OMe)][hhPhe] (not fully specified (C-terminus); printed as VHSQGT-(αMe-2FPhe)-TSD-(αMe-Bip(OMe))-(APPA)) [Seq. ID. No. 17]
[5] VVH[Aib]EGT[αMePhe(2,6-F2)]TSD[αMeBip(OMe)][hhPhe]-NH2 [Seq. ID. No. 227]
Request: Highest cAMP production (pmol/ml/µg prt) with saturated glucagon peptide, at 100 nM first, then in falling order down to the smallest. Could you list the labels in the order requested?
Result: 5, 1, 3, 4, 2

[A] VHAEGT[αMePhe(2-F)]TS[αMeD][αMeBip(OMe)][hhPhe]-NH2 [Seq. ID. No. 70]
[B] VH[Aib]EGT[αMePhe(2-F)]TSD[αMeBip(OMe)][hhPhe]-NH2 [Seq. ID. No. 23]
Request: Of A versus B , which is the one with smaller reported cAMP production (pmol/ml/µg prt) with saturated glucagon peptide, at 100 nM? Give the label of your selection.
Result: A
